Target: T1, recombinant human CLEC-1 protein with His Tag (#1704-CL R&D Systems) (human, UniProt Q8NC01 74-280)
T1 construct: Bought protein; also called His-CLEC1; His Clec-1; not shown: His tag
T1 sequence: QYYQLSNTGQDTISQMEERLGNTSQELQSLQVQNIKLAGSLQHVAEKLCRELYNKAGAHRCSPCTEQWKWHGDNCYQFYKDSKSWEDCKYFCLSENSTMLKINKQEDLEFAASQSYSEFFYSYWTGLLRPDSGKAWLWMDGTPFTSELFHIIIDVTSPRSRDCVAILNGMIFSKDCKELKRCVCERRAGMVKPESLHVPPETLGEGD
Assay: Blitz biolayer interferometry, His-CLEC1 on Ni-NTA biosensor, antibody at 20 ug/mL
observed property: koff (s⁻¹)
Give bare numbers, in s⁻¹.

Could you share which koff value was measured for chimeric anti-CLEC-1A antibody 14H9 (antibody, human IgG4 S228P, kappa, V domains shown, also called 14H9chim; 14H9-VHwt-FcG4m / 14H9-VLwt-CLhk) VH: QVQLKESGPGLVAPSQSLSITCTISGFSLTTYGIHWVRQPPGKGLEWLVVIWSDGSTIYNSALKSRLSISKDNSKSQVFLKMNSLQTDDTAIYYCARHGGYYNYFDYWGQGTTLTVSS VL: DIQMNQSPSSLSASLGDTITITCHASQNINVWLSWYQQKPGNIPKLLIYKASNLHTGVPSRFSGSGSGTTFTLTIDSLQPEDIATYYCQQGQSYWTFGGGTKLEIKR ?
0.00124
